- assay_remarks: Partition coefficient (logP)
- Type: physicochemical
- details: octanol/water
reported_endpoint: logP
The answer should be written as a number, with no unit following it.

Which logP value is on record for `O=C(O)CCCCCCNC1c2ccccc2CCc2ccccc21` ?
2.44

###

- assay_remarks: log P value at pH 7.4
- Type: physicochemical
- details: buffer
reported_endpoint: logD
The answer should be written as a number, with no unit following it.

Which logD value is on record for `O=C(O)CCCCCCNC1c2ccccc2CCc2ccccc21` ?
2.26

###

Listed compounds paired with reported pKa
- assay_remarks: Protonation constant by using Brij35 as a medium
- Assay type: ADME
The answer should be written as a number, with no unit following it.

Below, 2 compounds whose answers are already recorded.
Which pKa value is on record for O=C(O)CCCCCCNC1c2ccccc2CCc2ccccc21 [AMINEPTINE] ?
5.24

Which pKa value is on record for CC(CN(C)C)CN1c2ccccc2CCc2ccccc21 (stereo not drawn) [TRIMIPRAMINE] ?
6.77

Others:
Which pKa value is on record for c1ccc2c(c1)CCc1ccccc1N2C1CN2CCC1CC2 (stereo not drawn) [QUINUPRAMINE] ?
7.85
